assay: qHTS profiling for inhibitors of Plasmodium falciparum proliferation (AID 504749);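 note: 0% = DMSO vehicle and full inhibition = artemisinin control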; settings: P. falciparum in erythrocytes, SYBR Green DNA, 72 h; at 28.7 µM (top of the series); parasite line A
Inconclusive results are not listed.
Label scheme for activity, negative = inhibition: lower than 10% is 0.0, 10% and above is 1.0.

Answered cases to consult:
Problem: Could you tell me if the measured activity, negative = inhibition of C[C@]12C=CC(=O)C=C1CCC1C2C(O)C[C@]2(C)C1CC[C@]2(O)C(=O)CO (stereo not given in full) reaches 10% or more?
Result: 1.0

Problem: Could you tell me if the measured activity, negative = inhibition of CC1(C)S[C@H]2C(NC(=O)[C@@H](N)c3ccc(O)cc3)C(=O)N2[C@@H]1C(=O)O (stereo not given in full) reaches 10% or more?
Result: 0.0

Problem: Could you tell me if the measured activity, negative = inhibition of CN(C)CCCOC1C(C(O)CO)OC2OC(C)(C)O[C@@H]21 (stereo not given in full) reaches 10% or more?
Result: 0.0

Problem: Could you tell me if the measured activity, negative = inhibition of `CN(C/C=C\c1ccccc1)Cc1cccc2ccccc12` reaches 10% or more?
Result: 1.0

Attention now shifts to the item below.
Problem: Could you tell me if the measured activity, negative = inhibition of CC1(C)OC2CO[C@]3(COS(N)(=O)=O)OC(C)(C)OC3C2O1 (stereo not given in full) reaches 10% or more?
Result: 0.0
